meta.source: paper PMC5550455

system: HeLa human tumor cell line; test: Cytotoxicity assay, MTT method, HeLa; type: cell-based
measured-endpoint: pIC50
One number for each entry, as −log10 of the molar value.

INSERT INTO results (molecule, endpoint_value) VALUES
  ('CC1=CC(=O)C2(C3C(=O)c4c(cc(C(C)C)c(C=O)c4C)C3(C)O)C(C)=CC=C(C(C)C)C=C12 (single isomer, unassigned; (+)) [(+)-4]', 4.37);

For the next question, use this molecule.
So the reported pIC50 for CC1=CC(=O)C2(C3C(=O)c4c(cc(C(C)C)c(C=O)c4C)C3(C)O)C(C)=CC=C(C(C)C)C=C12 (single isomer, unassigned; (-)) [(−)-4] , on HeLa human tumor cell line, turned out to be 4.40

----------
Assign pIC50 to each entry below.
tested on: K562 human tumor cell line; experiment: Cytotoxicity assay, MTT method, K562; assay type: cell-based; conditions: Homo sapiens, K562, MTT method
Numbers only, as −log10 of the molar value.

// below: answered molecules
INSERT INTO measurements (molecule, endpoint_value) VALUES
  ('COc1cccc2c1C(=O)c1c(O)c3c(c(O)c1C2=O)C[C@@](O)(C(=O)CO)C[C@@H]3O[C@H]1C[C@H](N)[C@H](O)[C@H](C)O1 [Adramycin, Adriamycin, reference compound]', 6.70),
  ('Cc1cc(/C=C2\CCCN=C2C(=O)O)c2c(C)ccc(C(C)C)cc1-2 [compound 1, Muriceidine A]', 5.08),
  ('COC1CCN=C(C(=O)O)/C1=C/c1cc(C)c2cc(C(C)C)ccc(C)c1-2 (racemic) [compound 3, (±)-Muriceidine C]', 5.43),
  ('CO[C@H]1CCN=C(C(=O)O)/C1=C/c1cc(C)c2cc(C(C)C)ccc(C)c1-2 [(+)-3]', 4.33);

For the next question, use this molecule.
pIC50 reported for this molecule CO[C@@H]1CCN=C(C(=O)O)/C1=C/c1cc(C)c2cc(C(C)C)ccc(C)c1-2 [(−)-3] : 4.27

----------
Assign pIC50 to each entry below.
system: K562 human tumor cell line; test: Cytotoxicity assay, MTT method, K562; assay type: cell-based; conditions: MTT method
Give bare numbers, as −log10 of the molar value.

INSERT INTO results (molecule, target, measured_endpoint, endpoint_value) VALUES
  ('CC1=CC(=O)C2(C3C(=O)c4c(cc(C(C)C)c(C=O)c4C)C3(C)O)C(C)=CC=C(C(C)C)C=C12 (single isomer, unassigned; (+)) [(+)-4]', 'K562 human tumor cell line', 'pIC50', 4.05),
  ('Cc1cc(/C=C2\CCCN=C2C(=O)O)c2c(C)ccc(C(C)C)cc1-2 [compound 1, Muriceidine A]', 'K562 human tumor cell line', 'pIC50', 5.08);

For the next question, use this molecule.
So the reported pIC50 for COC1CCN=C(C(=O)O)/C1=C/c1cc(C)c2cc(C(C)C)ccc(C)c1-2 (racemic) [compound 3, (±)-Muriceidine C] , on K562 human tumor cell line, turned out to be 5.43
